As shown below, each of these compounds has a reported TGI value.
- Tested on: NCI-H226 lung
- method notes: NCI tumour cell line growth inhibition, 48 h
measurement label: TGI (µM)

[[record]]
compound = "CC[C@@]12CCCN3CC[C@]4(c5cccc(OC)c5N(C(C)=O)[C@@H]4CC1)[C@H]32"
system_tested = "NCI-H226 lung"
relation = ">"
endpoint_result = 100

[[record]]
compound = "COc1ccc(NC(=S)Nc2cc(C)cc(C)n2)cc1"
system_tested = "NCI-H226 lung"
relation = ">"
endpoint_result = 100

[[record]]
compound = "CC(C)=CCCc1c(C)ccc2c1C(=O)C(=O)C(C(C)C)=C2"
system_tested = "NCI-H226 lung"
relation = ">"
endpoint_result = 22

[[record]]
compound = "Cc1nc2c(nc1C)C(=O)c1ccccc1C2=O"
system_tested = "NCI-H226 lung"
relation = "="
endpoint_result = 13.3

[[record]]
compound = "CC1=NN(c2nc(N)nc(/C(C#N)=C/c3ccccc3O)n2)C(C)(C)C1"
system_tested = "NCI-H226 lung"
relation = "="
endpoint_result = 37.8

[[record]]
compound = "COc1ccc(-c2cc(-c3ccc(Nc4nc(Nc5ccccc5)nc(Nc5ccc(Cl)cc5)n4)cc3)nc(N)c2C#N)cc1"
system_tested = "NCI-H226 lung"
relation = "="
endpoint_result = 2.73

[[record]]
compound = "CN(C)CCNc1ccc([N+](=O)[O-])c2sc3ccccc3c(=O)c12"
system_tested = "NCI-H226 lung"
relation = "="
endpoint_result = 51.2

[[record]]
compound = "O=C(CSC(=S)N1CCCCC1)Nc1nc2c(s1)CCCC2"
system_tested = "NCI-H226 lung"
relation = ">"
endpoint_result = 100

[[record]]
compound = "CC1OC(OC2C(O[C@H]3CC[C@@H]4C(=CC[C@@H]5[C@@]4(C)C(=O)C[C@]4(C)[C@@H]([C@H](C)CC[C@@H](O)C(C)(C)O)CC[C@@]54C)C3(C)C)OC(CO)C(O)C2O)C(O)C(O)C1O (stereo not given in full)"
system_tested = "NCI-H226 lung"
relation = ">"
endpoint_result = 100

[[record]]
compound = "O=C(Nc1ccccc1)OCCN=C1c2ccccc2C(Br)C(Br)c2ccccc21 (stereo not given)"
system_tested = "NCI-H226 lung"
relation = "="
endpoint_result = 19.2

[[record]]
compound = "O=C1/C(=C/c2ccc([N+](=O)[O-])cc2)COc2ccc(O)c(O)c21"
system_tested = "NCI-H226 lung"
relation = "="
endpoint_result = 45.8

[[record]]
compound = "O=C(Nc1ccc(F)cc1F)c1cc(I)ccc1O"
system_tested = "NCI-H226 lung"
relation = "="
endpoint_result = 15.8

[[record]]
compound = "CCOC(=O)C1=C(C)CC2C(=O)OC(=O)C2C1(C)C (stereo not given)"
system_tested = "NCI-H226 lung"
relation = ">"
endpoint_result = 100

[[record]]
compound = "CC1=C(C(=O)Nc2ccc(F)c(Cl)c2)C(c2ccc(Cl)cc2)NC(=O)N1 (stereo not given)"
system_tested = "NCI-H226 lung"
relation = "="
endpoint_result = 38.6

[[record]]
compound = "CN(Cc1cnc2nc(N)nc(N)c2n1)c1ccc(C(=O)NCCS(=O)(=O)O)cc1"
system_tested = "NCI-H226 lung"
relation = ">"
endpoint_result = 100

[[record]]
compound = "C1=CC2(C=CC13O[C@H](C1CCCCC1)[C@@H](C1CCCCC1)O3)O[C@H](C1CCCCC1)[C@@H](C1CCCCC1)O2"
system_tested = "NCI-H226 lung"
relation = ">"
endpoint_result = 50

[[record]]
compound = "CC1=C(C(=O)Nc2ccccc2C)C(c2ccco2)C(C(=O)Nc2ccccc2C)=C(C)N1C"
system_tested = "NCI-H226 lung"
relation = ">"
endpoint_result = 100

[[record]]
compound = "O=c1ccn([C@@H]2C[C@H]2CO)c(=O)[nH]1"
system_tested = "NCI-H226 lung"
relation = ">"
endpoint_result = 100

[[record]]
compound = "N/C(=N\\N=C/c1ccc(O)c(O)c1O)NO"
system_tested = "NCI-H226 lung"
relation = ">"
endpoint_result = 77

[[record]]
compound = "COc1ccc2c(c1)C(=O)/C(=C/c1ccc(OCC(=O)Nc3nccs3)cc1)O2"
system_tested = "NCI-H226 lung"
relation = "="
endpoint_result = 34.8


====

- Test system: SK-MEL-2 melanoma
- method notes: NCI tumour cell line growth inhibition, 48 h; in the data active = GI50 below about 0.43 µM; inactive = the rest
Labels: True for active, False for inactive

[[record]]
compound_structure_string = "COc1ccc(C2=CSc3cc(Cl)c(C)cc3S(=O)(=O)N2C(C)=O)cc1"
system_tested = "SK-MEL-2 melanoma"
class_label = "False"

[[record]]
compound_structure_string = "CNC(=O)c1cc(Oc2ccc3nc(NC(=O)Nc4ccc(Cl)c(C(F)(F)F)c4)sc3c2)ccn1"
system_tested = "SK-MEL-2 melanoma"
class_label = "False"

[[record]]
compound_structure_string = "COc1ccc2c(c1)C(=O)/C(=C/c1ccc(OCC(=O)Nc3nccs3)cc1)O2"
system_tested = "SK-MEL-2 melanoma"
class_label = "True"

[[record]]
compound_structure_string = "O=C1c2cccnc2-c2nc(-c3ccccc3[N+](=O)[O-])cc3c2c1nc1ccccc13"
system_tested = "SK-MEL-2 melanoma"
class_label = "False"

[[record]]
compound_structure_string = "Cc1cc(=O)n2[nH]c(-c3ccc(C(C)(C)C)cc3)cc2n1"
system_tested = "SK-MEL-2 melanoma"
class_label = "False"


====

As shown below, each of these compounds has a reported TGI value.
- Test system: T-47D breast
- method notes: NCI tumour cell line growth inhibition, 48 h
Where a SMILES comes first, the peptide text is derived from it. [ ]: non-standard residue; d: D form. The star is where a group is joined. Boc = CC(C)(C)OC(=O)*; Lac = C[CH](O)C(=O)O; OBn = c1ccc(CO*)cc1
measurement label: TGI

[[record]]
compound = "CSc1ccccc1C#C/C=C\\C#Cc1ccccc1N1CCCC1=O"
endpoint_result = "> 20.3 µM"

[[record]]
compound = "O=C(C1OC1c1ccc(Cl)cc1)C12CC3CC(CC(C3)C1)C2 (configuration not stated)"
endpoint_result = "> 100 µM"

[[record]]
compound = "C=C1C[C@@H]2CC[C@@]34CC5O[C@H]6C(O[C@H]7CC[C@H](CC(=O)O[C@@H]8[C@@H](C)[C@@H]9O[C@@H]%10C[C@]%11(C[C@@H]%12O[C@]%13(C[C@H](C)[C@@H]%14O[C@@H]%15CC(C(O)CO)O[C@@H]%15C[C@@H]%14O%13)C[C@H](C)[C@@H]%12O%11)O[C@@H]%10C[C@@H]9O[C@H]8CC8O[C@@H](CC[C@@H]1O2)C[C@@H](C)C8(O)CO)O[C@@H]7[C@@H]6O3)[C@H]5O4 (some centres not stated)"
endpoint_result = "> 1 µM"

[[record]]
compound = "CC(=O)c1cccc(Nc2nc3ccccc3c3occc23)c1"
endpoint_result = "> 100 µM"

[[record]]
compound = "O=C1N(C2CCCCC2)C(=O)N1C1CCCCC1"
endpoint_result = "17.4 µM"

[[record]]
compound = "CSC1=C(C#N)C(=S)N=C(N)C1C(=O)Nc1ccc(C)cc1 (configuration not stated)"
endpoint_result = "> 100 µM"

[[record]]
compound = "CCOC(=O)c1c(SC(=O)c2ccc(C(C)(C)C)cc2)n(-c2ccccc2)c(=S)n(-c2ccccc2)c1=O"
endpoint_result = "> 100 µM"

[[record]]
compound = "Cc1nnc2n1N=C(c1ccccc1)/C(=C/c1ccc(-c3ccc(Cl)cc3)o1)S2"
endpoint_result = "42.4 µM"

[[record]]
compound = "CCCCCCCCSC1=CC(=O)c2nc3ccccc3c3ccnc1c23"
endpoint_result = "> 100 µM"

[[record]]
compound = "Cc1ccc(S(=O)(=O)NC(=O)NC(CC(N)=O)C(=O)O)cc1 (configuration not stated)"
endpoint_result = "> 100 µM"

[[record]]
compound = "CCc1ccc2c(c1)C(=O)c1c-2n(CCCBr)c(=O)c2cc([N+](=O)[O-])ccc12"
endpoint_result = "> 50 µM"

[[record]]
compound = "C=C(C)[C@@H]1CCC2=C[C@@H](OC2=O)[C@@H](C(=C)C)C2=CC(C(=O)O)=C(C1)O2"
endpoint_result = "> 100 µM"

[[record]]
compound = "O=C(NCCNc1nccc(-c2c(-c3cccc(O)c3)nc3sccn23)n1)c1ccccc1O"
endpoint_result = "20.5 µM"

[[record]]
compound = "CC(OC(=O)C(Cc1ccccc1)NC(=O)C(Cc1ccccc1)NC(=O)OC(C)(C)C)C(=O)OCc1ccccc1 (stereo not drawn) (Boc-Phe-Phe-[Lac]-OBn; configuration not given here)"
endpoint_result = "> 100 µM"

[[record]]
compound = "O=c1n(CC2CO2)c(=O)n(CC2CO2)n1CC1CO1 (configuration not stated)"
endpoint_result = "> 100 µM"

[[record]]
compound = "Cc1ccc(N=N/C(=N/NC(=O)c2cc(Cl)ccc2O)c2ccc(N(CCC#N)CCC#N)cc2C)cc1"
endpoint_result = "56.2 µM"

[[record]]
compound = "COc1ccc(/C=c2/sc3n(c2=O)C(c2ccccc2)C2(O)CCCCC2N=3)cc1 (configuration not stated)"
endpoint_result = "> 12.5 µM"

